assay system: Cdk2(2-298) (Homo sapiens)
Construct: Biotinylated N-terminal avi-tagged Cdk2(2-298) or Cdk1(1-297) was immobilized
method notes: Surface Plasmon Resonance (SPR), Biacore 8K, compound interaction with immobilized kinase
condition: biotinylated N-terminal avi-tagged protein on Chip SA, single-cycle kinetics (SCK, "S") mode, 1% DMSO, pH 7.5, read-out: Activity rating* (KD)
attribute measured: Kd

Test system Cdk2(2-298) (Homo sapiens); read-out Kd; what value for O=S(=O)(Nc1ccc(Oc2ncccc2-c2ccnc(N[C@H]3CCCNC3)n2)c(F)c1)c1ccccc1Cl [Compound 413] ? ≤ 10 nM

* * *

assay system: Cdk2(2-298) (Homo sapiens)
Construct: Biotinylated N-terminal avi-tagged Cdk2(2-298) or Cdk1(1-297) was immobilized
method notes: Surface Plasmon Resonance (SPR), Biacore 8K, compound interaction with immobilized kinase
condition: biotinylated N-terminal avi-tagged protein on Chip SA, single-cycle kinetics (SCK, "S") mode, 1% DMSO, pH 7.5, read-out: Activity rating* (KD)
pKd: −log10 of the molar value.
attribute measured: pKd

Examples with their reported pKd follow.
chem smiles | pKd
N[C@H]1CC[C@H](Nc2nccc(-c3cccnc3Oc3ccc(NS(=O)(=O)c4ccccc4Cl)cc3F)n2)CC1 | ≥ 8.00
N[C@H]1CC[C@H](Nc2nccc(-c3scnc3Oc3ccc(NS(=O)(=O)c4ccccc4Cl)cc3F)n2)CC1 | ≥ 8.00

Any idea what its pKd is? The molecule is N[C@H]1CC[C@H](Nc2nccc(-c3cccnc3Oc3cc(Cl)c(NS(=O)(=O)c4ccccc4Cl)cc3F)n2)CC1 ≥ 8.00

pKd for N[C@H]1CC[C@H](Nc2nccc(-c3cccnc3Oc3ccc(NS(=O)(=O)c4ccc5ccccc5c4)cc3F)n2)CC1 ? 6.00 to 7.00

Give its pKd value. Item: N[C@H]1CC[C@H](Nc2nccc(-c3cccnc3Oc3cc(Cl)c(NS(=O)(=O)c4cccc5ccccc45)cc3F)n2)CC1 7.00 to 7.96
